system: MaxS2pS11pK31AcK57Ac S2pS;S11pS;K31Ac;K57Ac;M1Nle;M65Nle;M148Nle, P61244-2; assay: BLI; settings: EMSA: 10 mM MES pH 6.0, 150 mM KCl, 1 mM MgCl2, 10% glycerol, room temperature 30 min, 8% TBE gel; CD: same buffer; BLI: 1x PBS, 0.1% BSA, 0.02% Tween-20, 65 nM
Sequence (P61244 whole entry, looked up): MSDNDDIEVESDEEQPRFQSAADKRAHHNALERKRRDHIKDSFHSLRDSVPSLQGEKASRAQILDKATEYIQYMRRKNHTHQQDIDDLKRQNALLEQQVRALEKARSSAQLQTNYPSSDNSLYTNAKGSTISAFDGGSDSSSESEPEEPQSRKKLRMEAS
observable: pKd
For clarity, pKd is expressed as the negative log10 of concentration in mol/L.

Entry CCGGCTGACACGTGGTATTAAT (double strand) [biotinylated E-box DNA probe] — recorded pKd = 5.96
